Data provenance: paper PMC8151276

Target: NPY5R (Homo sapiens, UniProt Q15761)
Construct: purchased Promega (in-house HiBiT-GPCR construct library, NanoBRET)
Sequence (Q15761 whole entry): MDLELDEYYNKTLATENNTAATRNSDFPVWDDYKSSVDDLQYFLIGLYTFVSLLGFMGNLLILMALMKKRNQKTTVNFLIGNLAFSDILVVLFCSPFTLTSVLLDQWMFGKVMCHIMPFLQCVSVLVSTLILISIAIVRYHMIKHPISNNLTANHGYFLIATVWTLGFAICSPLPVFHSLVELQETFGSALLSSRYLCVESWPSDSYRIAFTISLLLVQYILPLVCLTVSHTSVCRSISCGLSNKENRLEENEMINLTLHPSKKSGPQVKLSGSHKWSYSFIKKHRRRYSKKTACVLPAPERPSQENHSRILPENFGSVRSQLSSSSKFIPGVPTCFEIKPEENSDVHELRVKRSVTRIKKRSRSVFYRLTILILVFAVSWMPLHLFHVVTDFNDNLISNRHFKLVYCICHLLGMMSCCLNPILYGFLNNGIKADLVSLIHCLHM
Test: NanoBRET screen HiBiT-NPY5R in HEK293
Assay type: binding
Conditions: NPY5R; tracer 0.1μM
Entries and their NanoBRET Fold Response

[
  {
    "Given smiles": "CC(C)N(CC[C@H](c1ccccc1)c1cc(CCNC(=O)c2ccc(CNC(=O)CCc3ccc4n3[B-](F)(F)[N+]3=C(c5ccc[nH]5)C=CC3=C4)cc2)ccc1O)C(C)C",
    "NanoBRET Fold Response": 1.05
  },
  {
    "Given smiles": "O=C(CCOCCOCCOCCOCCNC(=O)CCc1ccc2n1[B-](F)(F)[N+]1=C(c3ccc[nH]3)C=CC1=C2)NCCCN1CCN(C2=Nc3ccccc3Oc3ccc(Cl)cc32)CC1",
    "NanoBRET Fold Response": 0.96
  },
  {
    "Given smiles": "Cc1cc2c(s1)Nc1ccccc1N=C2N1CCN(CCCNC(=O)CCOCCOCCOCCOCCNC(=O)CCc2ccc3n2[B-](F)(F)[N+]2=C(c4ccc[nH]4)C=CC2=C3)CC1",
    "NanoBRET Fold Response": 1.00
  },
  {
    "Given smiles": "N#CN=C(NCCCOc1cccc(CN2CCCCC2)c1)NCCNC(=O)CCOCCOCCOCCOCCNC(=O)CCc1ccc2n1[B-](F)(F)[N+]1=C(c3ccc[nH]3)C=CC1=C2",
    "NanoBRET Fold Response": 1.04
  }
]

----------
Entries and their NanoBRET Fold Response
Target: CCR3 (Homo sapiens, UniProt P51677)
Construct: purchased Promega (in-house HiBiT-GPCR construct library, NanoBRET)
Sequence (P51677 whole entry): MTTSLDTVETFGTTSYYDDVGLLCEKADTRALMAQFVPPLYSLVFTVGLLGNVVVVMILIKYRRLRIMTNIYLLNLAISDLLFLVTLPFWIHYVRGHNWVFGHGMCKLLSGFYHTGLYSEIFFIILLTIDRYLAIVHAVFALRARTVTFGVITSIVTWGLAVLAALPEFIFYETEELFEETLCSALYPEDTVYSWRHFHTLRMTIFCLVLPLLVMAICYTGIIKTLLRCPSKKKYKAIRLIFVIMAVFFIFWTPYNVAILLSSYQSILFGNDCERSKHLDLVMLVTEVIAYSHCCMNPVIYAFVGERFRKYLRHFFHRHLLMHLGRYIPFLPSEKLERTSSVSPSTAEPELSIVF
Test: NanoBRET screen HiBiT-CCR3 in HEK293
Format: binding
Conditions: CCR3; tracer 0.1μM

[
  {
    "Compound": "O=C(CCc1ccc2n1[B-](F)(F)[N+]1=C(c3ccc[nH]3)C=CC1=C2)NCCOCCOCCNC(=O)OCCOCCN1CCN(C2=Nc3ccccc3Sc3ccccc32)CC1",
    "NanoBRET Fold Response": 1.11
  },
  {
    "Compound": "N#CN=C(NCCCOc1cccc(CN2CCCCC2)c1)NCCNC(=O)CCOCCOCCOCCOCCNC(=O)CCc1ccc2n1[B-](F)(F)[N+]1=C(c3ccc[nH]3)C=CC1=C2",
    "NanoBRET Fold Response": 0.95
  },
  {
    "Compound": "COc1ccccc1N1CCN(CCCCN2C(=O)c3ccc(CNC(=O)CCOCCNC(=O)c4ccc(CNC(=O)CCc5ccc6n5[B-](F)(F)[N+]5=C(c7ccc[nH]7)C=CC5=C6)cc4)cc3C2=O)CC1",
    "NanoBRET Fold Response": 1.02
  },
  {
    "Compound": "O=C(CCc1ccc2n1[B-](F)(F)[N+]1=C(c3ccc[nH]3)C=CC1=C2)NCc1ccc(C(=O)NCCOCCC(=O)N[C@@H]2CC[C@@]3(O)[C@H]4Cc5ccc(O)c6c5[C@@]3(CCN4CC3CC3)[C@H]2O6)cc1 [Naltrexone-3-NB590]",
    "NanoBRET Fold Response": 1.35
  },
  {
    "Compound": "O=C(CCOCCOCCOCCOCCNC(=O)CCc1ccc2n1[B-](F)(F)[N+]1=C(c3ccc[nH]3)C=CC1=C2)NCCCN1CCN(C2=Nc3ccccc3Oc3ccc(Cl)cc32)CC1",
    "NanoBRET Fold Response": 1.02
  },
  {
    "Compound": "CC(C)N(CC[C@H](c1ccccc1)c1cc(CCNC(=O)CCOCCOCCOCCOCCNC(=O)CCc2ccc3n2[B-](F)(F)[N+]2=C(c4ccc[nH]4)C=CC2=C3)ccc1O)C(C)C",
    "NanoBRET Fold Response": 1.63
  },
  {
    "Compound": "Cc1cc2c(s1)Nc1ccccc1N=C2N1CCN(CCCNC(=O)CCOCCOCCOCCOCCNC(=O)CCc2ccc3n2[B-](F)(F)[N+]2=C(c4ccc[nH]4)C=CC2=C3)CC1",
    "NanoBRET Fold Response": 1.19
  },
  {
    "Compound": "COc1ccccc1N1CCN(CCCCN2C(=O)c3ccc(CNC(=O)CCOCCOCCOCCOCCNC(=O)CCc4ccc5n4[B-](F)(F)[N+]4=C(c6ccc[nH]6)C=CC4=C5)cc3C2=O)CC1",
    "NanoBRET Fold Response": 1.08
  },
  {
    "Compound": "CC(C)N(CC[C@H](c1ccccc1)c1cc(CCNC(=O)c2ccc(CNC(=O)CCc3ccc4n3[B-](F)(F)[N+]3=C(c5ccc[nH]5)C=CC3=C4)cc2)ccc1O)C(C)C",
    "NanoBRET Fold Response": 0.98
  },
  {
    "Compound": "Cc1nc2n(c(=O)c1CCN1CCC(c3noc4cc(F)ccc34)CC1)CCCC2OC(=O)NCCOCCOCCOCCOCCNC(=O)CCc1ccc2n1[B-](F)(F)[N+]1=C(c3ccc[nH]3)C=CC1=C2 (centres unmarked)",
    "NanoBRET Fold Response": 1.06
  },
  {
    "Compound": "CCCn1c(=O)c2[nH]c(-c3ccc(OCC(=O)NCCNC(=O)CCOCCNC(=O)c4ccc(CNC(=O)CCc5ccc6n5[B-](F)(F)[N+]5=C(c7ccc[nH]7)C=CC5=C6)cc4)cc3)nc2n(CCC)c1=O",
    "NanoBRET Fold Response": 1.28
  }
]
